- ASSAY_TARGET: human TLR8 (Homo sapiens, UniProt Q9NR97)
- Sequence (Q9NR97 27-1041): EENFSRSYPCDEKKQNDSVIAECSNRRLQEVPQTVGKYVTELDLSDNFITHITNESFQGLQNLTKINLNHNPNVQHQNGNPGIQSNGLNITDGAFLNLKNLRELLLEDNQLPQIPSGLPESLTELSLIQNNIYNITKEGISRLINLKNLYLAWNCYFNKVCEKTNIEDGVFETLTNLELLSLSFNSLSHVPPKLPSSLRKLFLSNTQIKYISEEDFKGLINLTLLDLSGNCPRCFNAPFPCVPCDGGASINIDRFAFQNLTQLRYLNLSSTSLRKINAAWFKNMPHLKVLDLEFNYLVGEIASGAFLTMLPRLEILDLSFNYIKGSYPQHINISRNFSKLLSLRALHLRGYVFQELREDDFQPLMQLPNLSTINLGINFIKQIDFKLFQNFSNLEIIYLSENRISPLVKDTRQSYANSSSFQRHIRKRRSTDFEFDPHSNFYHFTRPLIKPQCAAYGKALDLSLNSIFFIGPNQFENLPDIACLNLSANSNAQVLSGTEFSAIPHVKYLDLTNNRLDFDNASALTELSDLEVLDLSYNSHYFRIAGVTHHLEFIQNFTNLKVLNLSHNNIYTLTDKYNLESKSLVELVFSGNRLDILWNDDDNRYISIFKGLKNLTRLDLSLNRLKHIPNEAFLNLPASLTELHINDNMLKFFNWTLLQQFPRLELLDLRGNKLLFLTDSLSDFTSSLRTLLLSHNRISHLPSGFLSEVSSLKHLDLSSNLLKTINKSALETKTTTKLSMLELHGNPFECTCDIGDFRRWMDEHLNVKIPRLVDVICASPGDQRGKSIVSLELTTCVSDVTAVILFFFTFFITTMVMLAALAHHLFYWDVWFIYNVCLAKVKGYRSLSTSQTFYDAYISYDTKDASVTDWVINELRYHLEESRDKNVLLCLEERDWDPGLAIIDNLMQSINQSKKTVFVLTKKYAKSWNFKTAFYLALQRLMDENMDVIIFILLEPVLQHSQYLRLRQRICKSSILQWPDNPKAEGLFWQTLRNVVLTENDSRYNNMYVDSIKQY
- ASSAY_REMARKS: TLR8 inhibition reporter assay (HEK-Blue cells, SEAP reporter, R848 stimulation)
- MEASUREMENT_SETUP: HEK-Blue cells overexpressing human TLR8, R848 15.9 μM
MEASURE_NAME: IC50 (nM)

// worked examples, IC50 included
Per the record, COc1ccc(-c2[nH]c3ccc(C4CCN(Cc5cnc(C)[nH]5)CC4)cc3c2C(C)C)cc1OC [Example 266] has IC50 of 20

Recorded IC50 (molecule COc1ccc(-c2[nH]c3ccc(C4CCN(C(=O)CNCCOCCO)CC4)cc3c2C(C)C)cc1OC [Example 230] ): 18

A = COc1ccc(-c2[nH]c3ccc(C4CCN(C(=O)CN5CCC[C@H](C(=O)NCCNC(C)=O)C5)CC4)cc3c2C(C)C)cc1OC [Example 295]
B = CCc1c(-c2ccc(OC)c(OC)c2)[nH]c2ccc(C3CCN(C(=O)C4CCNCC4)CC3)cc12 [Example 186]
Exercise: Between A and B , which one has the lower reported IC50 value? Give the label of your selection.
Solution: A
(A: 22 nM, B: 132 nM)
